Hello, the source for this data is ChEMBL document CHEMBL3991601, in case you need it.

Would you mind telling me the reported Kd of each entry?
target-desc: Platelet-derived growth factor receptor beta (Homo sapiens, UniProt P09619); also: in the data inactive means no Kd found up to 30 µM
Sequence (P09619 whole entry): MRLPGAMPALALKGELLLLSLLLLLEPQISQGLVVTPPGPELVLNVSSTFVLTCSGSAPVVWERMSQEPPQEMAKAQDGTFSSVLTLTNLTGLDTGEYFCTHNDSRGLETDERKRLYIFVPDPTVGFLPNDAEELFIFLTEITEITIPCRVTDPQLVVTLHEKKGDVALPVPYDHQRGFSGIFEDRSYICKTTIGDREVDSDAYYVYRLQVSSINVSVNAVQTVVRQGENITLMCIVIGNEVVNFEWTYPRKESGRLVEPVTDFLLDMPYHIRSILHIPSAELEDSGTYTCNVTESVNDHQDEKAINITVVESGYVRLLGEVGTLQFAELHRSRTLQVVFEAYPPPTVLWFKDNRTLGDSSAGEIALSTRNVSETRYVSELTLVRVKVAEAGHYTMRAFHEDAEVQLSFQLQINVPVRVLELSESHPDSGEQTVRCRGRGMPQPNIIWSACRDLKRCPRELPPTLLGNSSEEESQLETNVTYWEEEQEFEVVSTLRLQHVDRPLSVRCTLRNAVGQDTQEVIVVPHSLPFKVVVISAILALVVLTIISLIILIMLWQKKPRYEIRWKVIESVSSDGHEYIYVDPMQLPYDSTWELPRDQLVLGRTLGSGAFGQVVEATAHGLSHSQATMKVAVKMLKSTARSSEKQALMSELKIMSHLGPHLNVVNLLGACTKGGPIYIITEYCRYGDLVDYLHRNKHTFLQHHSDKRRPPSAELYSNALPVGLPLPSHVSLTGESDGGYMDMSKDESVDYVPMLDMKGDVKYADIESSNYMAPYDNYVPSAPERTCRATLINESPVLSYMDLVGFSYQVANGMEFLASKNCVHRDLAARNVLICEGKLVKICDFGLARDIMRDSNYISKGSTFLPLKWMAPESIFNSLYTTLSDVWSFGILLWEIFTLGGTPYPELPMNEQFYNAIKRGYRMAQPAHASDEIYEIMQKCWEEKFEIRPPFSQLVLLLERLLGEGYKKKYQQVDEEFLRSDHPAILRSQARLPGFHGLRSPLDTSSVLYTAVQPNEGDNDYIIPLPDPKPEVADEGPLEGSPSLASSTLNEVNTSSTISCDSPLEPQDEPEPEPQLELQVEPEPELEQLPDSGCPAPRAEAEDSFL
Activity calls are given as the source filed them.

Completed entries (count: 7):
{"molecule": "COc1ccc(S(=O)(=O)N(C(C)=O)c2ccccc2/C=C/c2cc[n+]([O-])cc2)cc1", "target-desc": "Platelet-derived growth factor receptor beta (Homo sapiens, UniProt P09619)", "Kd": "> 30 µM (inactive)"}
{"molecule": "COCC(=O)NC/C=C/c1ccc2ncnc(Nc3ccc(Oc4ccc(C)nc4)c(C)c3)c2c1", "target-desc": "Platelet-derived growth factor receptor beta (Homo sapiens, UniProt P09619)", "Kd": "> 30 µM (inactive)"}
{"molecule": "Cc1[nH]c(/C=C2\\C(=O)Nc3ccccc32)c(C)c1CCC(=O)O [ORANTINIB]", "target-desc": "Platelet-derived growth factor receptor beta (Homo sapiens, UniProt P09619)", "Kd": "0.744 µM (active)"}
{"molecule": "Cc1nc(Nc2n[nH]c3c2CN(C(=O)N[C@H](CN(C)C)c2ccccc2)C3(C)C)c2sccc2n1", "target-desc": "Platelet-derived growth factor receptor beta (Homo sapiens, UniProt P09619)", "Kd": "29.7 µM"}
{"molecule": "COCc1c(-c2ccc(NC(=O)Nc3cc(C(F)(F)F)ccc3F)c(F)c2)c2c(N)ncnn2c1CN1CCOCC1", "target-desc": "Platelet-derived growth factor receptor beta (Homo sapiens, UniProt P09619)", "Kd": "> 30 µM (inactive)"}
{"molecule": "O=C(Nc1c[nH]nc1-c1nc2cc(CN3CCOCC3)ccc2[nH]1)NC1CC1", "target-desc": "Platelet-derived growth factor receptor beta (Homo sapiens, UniProt P09619)", "Kd": "> 30 µM (inactive)"}
{"molecule": "CO[C@H]1C[C@@H]2CC[C@@H](C)[C@@](O)(O2)C(=O)C(=O)N2CCCC[C@H]2C(=O)O[C@H]([C@H](C)C[C@@H]2CC[C@@H](OC(=O)C(C)(CO)CO)[C@H](OC)C2)CC(=O)[C@H](C)/C=C(\\C)[C@@H](O)[C@@H](OC)C(=O)[C@H](C)C[C@H](C)/C=C/C=C/C=C/1C", "target-desc": "Platelet-derived growth factor receptor beta (Homo sapiens, UniProt P09619)", "Kd": "> 30 µM (inactive)"}

# ---- query molecule ----
Request: Would you mind telling me what Kd value was observed for CCn1cc(-c2ccnc3[nH]c(-c4cccc(CN(C)C)c4)cc23)c(-c2ccc(NC(=O)N(C)C)cc2)n1 ?
Response: > 30 µM (inactive)
